Where do these numbers come from? They come from paper PMC8699473.

Some compounds, each annotated with its measured Autosampler (72h, 4°C) Accuracy [%].
# assay info: Autosampler stability of ready for injection samples
# Type: physicochemical, human
# condition parameters: validation standard 2xLLOV
assay endpoint: Autosampler (72h, 4°C) Accuracy [%] (%)

INSERT INTO measurements (compound, endpoint_result) VALUES
  ('Cc1c(C(=O)Nc2ccc(N3C[C@@H](C)O[C@@H](C)C3)nc2)cccc1-c1ccc(OC(F)(F)F)cc1', 101.9),
  ('C[C@H]1Oc2cc(cnc2N)-c2c(nn(C)c2C#N)CN(C)C(=O)c2ccc(F)cc21', 99.0),
  ('CO[C@@H]1[C@H](N(C)C(=O)c2ccccc2)C[C@H]2O[C@]1(C)n1c3ccccc3c3c4c(c5c6ccccc6n2c5c31)C(=O)NC4', 103.0),
  ('Cc1cn(-c2cc(NC(=O)c3ccc(C)c(Nc4nccc(-c5cccnc5)n4)c3)cc(C(F)(F)F)c2)cn1', 101.2),
  ('COc1cc2nccc(Oc3ccc(NC(=O)C4(C(=O)Nc5ccc(F)cc5)CC4)cc3)c2cc1OC [Cabozantinib]', 103.4),
  ('CCN(CC)CCNC(=O)c1c(C)[nH]c(/C=C2\C(=O)Nc3ccc(F)cc32)c1C', 111.0),
  ('Cc1ccc(C(=O)Nc2ccc(CN3CCN(C)CC3)c(C(F)(F)F)c2)cc1C#Cc1cnc2cccnn12', 106.1),
  ('COc1cc2ncnc(Nc3ccc(F)c(Cl)c3)c2cc1OCCCN1CCOCC1', 98.5);

* * *

Some molecules, each annotated with its measured Long-term stability, 1 month, -20°C Accuracy [%].
# assay info: Long-term stability in spiked pooled human plasma
# condition parameters: validation standard ULOV
assay endpoint: Long-term stability, 1 month, -20°C Accuracy [%] (%)

INSERT INTO results (molecule, endpoint_result) VALUES
  ('Nc1cccc2c1C(=O)N(C1CCC(=O)NC1=O)C2=O (stereo not drawn) [Pomalidomide]', 94.6),
  ('CC(C)(C)c1nc(-c2cccc(NS(=O)(=O)c3c(F)cccc3F)c2F)c(-c2ccnc(N)n2)s1', 97.0),
  ('CNC(=O)c1cc(Oc2ccc(NC(=O)Nc3ccc(Cl)c(C(F)(F)F)c3)c(F)c2)ccn1', 104.7),
  ('CNCc1ccc(-c2[nH]c3cc(F)cc4c3c2CCNC4=O)cc1', 99.8),
  ('Cn1cnc2c(F)c(Nc3ccc(Br)cc3F)c(C(=O)NOCCO)cc21', 99.6),
  ('NC(=O)c1cccc2cn(-c3ccc([C@@H]4CCCNC4)cc3)nc12', 100.8),
  ('CCN(CC)CCNC(=O)c1c(C)[nH]c(/C=C2\C(=O)Nc3ccc(F)cc32)c1C', 119.5),
  ('Nc1cccc2c1CN(C1CCC(=O)NC1=O)C2=O (stereo not drawn) [Lenalidomide]', 92.6),
  ('COc1cc2ncnc(Nc3ccc(F)c(Cl)c3)c2cc1OCCCN1CCOCC1', 98.5);

* * *

# assay info: Long-term stability in spiked pooled human plasma
# condition parameters: validation standard ULOV
Some compounds, each annotated with its measured Long-term stability, 1 month, -20°C Accuracy [%].
assay endpoint: Long-term stability, 1 month, -20°C Accuracy [%] (%)

INSERT INTO measurements (compound, endpoint_result) VALUES
  ('COc1cc2nccc(Oc3ccc(NC(=O)C4(C(=O)Nc5ccc(F)cc5)CC4)cc3)c2cc1OC [Cabozantinib]', 95.7),
  ('CNC(=O)c1ccc(N2C(=S)N(c3ccc(C#N)c(C(F)(F)F)c3)C(=O)C2(C)C)cc1F [Enzalutamide]', 85.8),
  ('CNC(=O)c1cc(Oc2ccc(NC(=O)Nc3ccc(Cl)c(C(F)(F)F)c3)cc2)ccn1', 104.5),
  ('COC(=O)N[C@@H](C)CNc1nccc(-c2cn(C(C)C)nc2-c2cc(Cl)cc(NS(C)(=O)=O)c2F)n1', 99.1);

* * *

# assay info: Freeze-thaw stability in spiked pooled human plasma
# Format: physicochemical
# condition parameters: validation standard MOV
Some molecules, each annotated with its measured Freeze-Thaw Accuracy [%].
assay endpoint: Freeze-Thaw Accuracy [%] (%)

INSERT INTO results (molecule, assay_endpoint, endpoint_result) VALUES
  ('Cc1ccc(NC(=O)c2ccc(CN3CCN(C)CC3)cc2)cc1Nc1nccc(-c2cccnc2)n1 [Imatinib]', 'Freeze-Thaw Accuracy [%]', 96.7),
  ('O=C(c1ccc(F)c(F)c1Nc1ccc(I)cc1F)N1CC(O)([C@@H]2CCCCN2)C1 [Cobimetinib]', 'Freeze-Thaw Accuracy [%]', 97.3),
  ('CCN(CC)CCNC(=O)c1c(C)[nH]c(/C=C2\C(=O)Nc3ccc(F)cc32)c1C [Sunitinib]', 'Freeze-Thaw Accuracy [%]', 99.1),
  ('C=CC(=O)N1CCC[C@@H](n2nc(-c3ccc(Oc4ccccc4)cc3)c3c(N)ncnc32)C1 [Ibrutinib]', 'Freeze-Thaw Accuracy [%]', 93.3);

* * *

# assay info: Long-term stability in spiked pooled human plasma
# condition parameters: validation standard MOV
Some compounds, each annotated with its measured Long-term stability, 2 month, -80°C Accuracy [%].
assay endpoint: Long-term stability, 2 month, -80°C Accuracy [%] (%)

INSERT INTO measurements (compound, endpoint_result) VALUES
  ('Nc1cccc2c1CN(C1CCC(=O)NC1=O)C2=O (centres unmarked) [Lenalidomide]', 104.0),
  ('CCc1cc2c(cc1N1CCC(N3CCOCC3)CC1)C(C)(C)c1[nH]c3cc(C#N)ccc3c1C2=O', 89.3),
  ('Cc1nc(Nc2ncc(C(=O)Nc3c(C)cccc3Cl)s2)cc(N2CCN(CCO)CC2)n1', 92.3),
  ('CS(=O)(=O)c1ccc(C(=O)Nc2ccc(Cl)c(-c3ccccn3)c2)c(Cl)c1', 103.7),
  ('CNC(=O)c1ccc(N2C(=S)N(c3cnc(C#N)c(C(F)(F)F)c3)C(=O)C23CCC3)cc1F [Apalutamide]', 97.6),
  ('CC(C)(C)c1nc(-c2cccc(NS(=O)(=O)c3c(F)cccc3F)c2F)c(-c2ccnc(N)n2)s1', 98.9),
  ('CS(=O)(=O)CCNCc1ccc(-c2ccc3ncnc(Nc4ccc(OCc5cccc(F)c5)c(Cl)c4)c3c2)o1', 103.0),
  ('CNC(=O)c1cc(Oc2ccc(NC(=O)Nc3ccc(Cl)c(C(F)(F)F)c3)c(F)c2)ccn1', 112.2),
  ('COc1cc2ncnc(Nc3ccc(F)c(Cl)c3)c2cc1NC(=O)/C=C/CN1CCCCC1', 99.2),
  ('COc1cc2c(Nc3ccc(Br)cc3F)ncnc2cc1OCC1CCN(C)CC1', 105.2),
  ('C[C@@H](Oc1cc(-c2cnn(C3CCNCC3)c2)cnc1N)c1c(Cl)ccc(F)c1Cl', 96.2),
  ('C[C@]12CC[C@H](O)CC1=CC[C@@H]1[C@@H]2CC[C@]2(C)C(c3cccnc3)=CC[C@@H]12', 102.9),
  ('CN(C)C(=O)c1cc2cnc(Nc3ccc(N4CCNCC4)cn3)nc2n1C1CCCC1', 108.1),
  ('O=C(Nc1cnn2ccc(N3CCC[C@@H]3c3cc(F)ccc3F)nc12)N1CC[C@H](O)C1', 103.2),
  ('NC(=O)c1cccc2cn(-c3ccc([C@@H]4CCCNC4)cc3)nc12', 103.9),
  ('CNC(=O)c1ccc(N2C(=S)N(c3ccc(C#N)c(C(F)(F)F)c3)C(=O)C2(C)C)cc1F [Enzalutamide]', 95.7),
  ('O=C1CN2Cc3c(ccc(Cl)c3Cl)N=C2N1 [Anagrelide]', 98.7);

* * *

Some molecules, each annotated with its measured Long-term stability, 3 month, -80°C Accuracy [%].
# assay info: Long-term stability in spiked pooled human plasma
# condition parameters: validation standard ULOV
assay endpoint: Long-term stability, 3 month, -80°C Accuracy [%] (%)

INSERT INTO measurements (molecule, endpoint_result) VALUES
  ('CCN(CC)CCNC(=O)c1c(C)[nH]c(/C=C2\C(=O)Nc3ccc(F)cc32)c1C', 118.4),
  ('CNC(=O)c1cc(Oc2ccc(NC(=O)Nc3ccc(Cl)c(C(F)(F)F)c3)cc2)ccn1', 102.3),
  ('Cc1c(C(=O)Nc2ccc(N3C[C@@H](C)O[C@@H](C)C3)nc2)cccc1-c1ccc(OC(F)(F)F)cc1', 100.0),
  ('COc1cc2c(Nc3ccc(Br)cc3F)ncnc2cc1OCC1CCN(C)CC1', 98.8),
  ('O=C(c1ccc(F)c(F)c1Nc1ccc(I)cc1F)N1CC(O)([C@@H]2CCCCN2)C1', 98.3),
  ('NC(=O)c1cccc2cn(-c3ccc([C@@H]4CCCNC4)cc3)nc12', 101.8),
  ('COc1cc2nccc(Oc3ccc(NC(=O)NC4CC4)c(Cl)c3)c2cc1C(N)=O', 100.8),
  ('O=C1CCC(N2C(=O)c3ccccc3C2=O)C(=O)N1 (centres unmarked) [Thalidomide]', 78.0),
  ('Cc1ccc(Nc2nccc(N(C)c3ccc4c(C)n(C)nc4c3)n2)cc1S(N)(=O)=O', 100.0),
  ('Nc1cccc2c1CN(C1CCC(=O)NC1=O)C2=O (centres unmarked) [Lenalidomide]', 94.4),
  ('CO[C@@H]1[C@H](N(C)C(=O)c2ccccc2)C[C@H]2O[C@]1(C)n1c3ccccc3c3c4c(c5c6ccccc6n2c5c31)C(=O)NC4', 107.0),
  ('Cn1cnc2c(F)c(Nc3ccc(Br)cc3F)c(C(=O)NOCCO)cc21', 102.6),
  ('COc1cc(N2CCC(N3CCN(C)CC3)CC2)ccc1Nc1ncc(Cl)c(Nc2ccccc2P(C)(C)=O)n1', 98.7),
  ('COc1cc2ncnc(Nc3ccc(F)c(Cl)c3)c2cc1NC(=O)/C=C/CN1CCCCC1', 97.6),
  ('N#CC[C@H](C1CCCC1)n1cc(-c2ncnc3[nH]ccc23)cn1', 94.5),
  ('C#Cc1cccc(Nc2ncnc3cc(OCCOC)c(OCCOC)cc23)c1', 104.4),
  ('Cc1nc(Nc2ncc(C(=O)Nc3c(C)cccc3Cl)s2)cc(N2CCN(CCO)CC2)n1', 105.8),
  ('COc1cc2nccc(Oc3ccc(NC(=O)C4(C(=O)Nc5ccc(F)cc5)CC4)cc3)c2cc1OC [Cabozantinib]', 93.1),
  ('COc1cc2nccc(Oc3ccc(NC(=O)Nc4cc(C)on4)c(Cl)c3)c2cc1OC', 96.2),
  ('CNC(=O)c1ccc(N2C(=S)N(c3ccc(C#N)c(C(F)(F)F)c3)C(=O)C2(C)C)cc1F [Enzalutamide]', 87.3),
  ('CS(=O)(=O)CCNCc1ccc(-c2ccc3ncnc(Nc4ccc(OCc5cccc(F)c5)c(Cl)c4)c3c2)o1', 96.7),
  ('Cc1cc(Nc2ncc(Cl)c(Nc3ccccc3S(=O)(=O)C(C)C)n2)c(OC(C)C)cc1C1CCNCC1', 100.0),
  ('CCOc1cc2ncc(C#N)c(Nc3ccc(OCc4ccccn4)c(Cl)c3)c2cc1NC(=O)/C=C/CN(C)C', 91.8);
